targetDesc: A2A adenosine receptors (Rattus norvegicus, UniProt P30543)
Sequence (P30543 whole entry): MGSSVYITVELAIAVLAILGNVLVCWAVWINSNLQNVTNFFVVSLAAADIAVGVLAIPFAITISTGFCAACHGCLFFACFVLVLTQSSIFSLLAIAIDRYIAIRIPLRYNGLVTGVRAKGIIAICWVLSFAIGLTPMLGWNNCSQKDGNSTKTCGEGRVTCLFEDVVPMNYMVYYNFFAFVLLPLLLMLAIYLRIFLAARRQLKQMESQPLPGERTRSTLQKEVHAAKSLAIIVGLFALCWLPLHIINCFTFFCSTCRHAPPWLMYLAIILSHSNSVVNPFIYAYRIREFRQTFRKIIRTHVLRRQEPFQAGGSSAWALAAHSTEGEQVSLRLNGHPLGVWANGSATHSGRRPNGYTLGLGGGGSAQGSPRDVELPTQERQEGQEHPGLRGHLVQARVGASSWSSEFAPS
methodDescription: Competitive radioligand binding, [3H]ZM241385, PC12 cell membranes
testContext: pKi ± SEM, PC12 cells (A2A), [3H]ZM241385
quantityName: pKi
Reminder that pKi means the negative base-10 logarithm of the concentration expressed in mol/L.

Prompt: Specify measured pKi for CCCCCn1cc(-c2nc(N)c3ncn(C4O[C@@H](CO)[C@H](O)[C@@H]4O)c3n2)cn1 (stereo partly shown) .
Completion: 5.45

---

targetDesc: A2A adenosine receptors (Sus scrofa)
methodDescription: Competitive radioligand binding, [3H]ZM241385, pig striatum membranes
testContext: [3H]ZM241385, Gpp(NH)p present; read-out: pKi ± SEM, Pig Strialum (A2A) (converted)
quantityName: Ki (nM)
Write it as a number; the unit nM goes unstated.

1) Nc1nc(C#CCOc2ccccc2)nc2c1ncn2C1O[C@@H](CO)[C@H](O)[C@@H]1O (stereo partly drawn); 13.8

Prompt: Specify measured Ki for CCOC(=O)c1cnn(-c2nc(N)c3ncn([C@@H]4O[C@H](CO)[C@@H](O)[C@H]4O)c3n2)c1 .
Completion: 60.3

Prompt: Specify measured Ki for Nc1nc(C#CCOc2ccccc2Cc2ccccc2)nc2c1ncn2[C@@H]1O[C@H](CO)[C@@H](O)[C@H]1O .
Completion: 57.5

Prompt: Specify measured Ki for CCCCCn1cc(-c2nc(N)c3ncn(C4O[C@@H](CO)[C@H](O)[C@@H]4O)c3n2)cn1 (stereo partly drawn) .
Completion: 2140

Prompt: Specify measured Ki for Cc1ccc(-c2cnn(-c3nc(N)c4ncn([C@@H]5O[C@H](CO)[C@@H](O)[C@H]5O)c4n3)c2)cc1 .
Completion: 490

Prompt: Specify measured Ki for CNC(=O)c1cnn(-c2nc(N)c3ncn(C4O[C@@H](CO)[C@H](O)[C@@H]4O)c3n2)c1 (stereo partly drawn) .
Completion: 1120

---

targetDesc: A2A adenosine receptors (PC12 cells) (Rattus norvegicus, UniProt P30543)
Sequence (P30543 whole entry): as above
methodDescription: cAMP accumulation in PC12 cells
testContext: pEC50 ± SEM, cAMP Accumulation (PC12 cells)
quantityName: EC50 (nM)
Write it as a number; the unit nM goes unstated.

Prompt: GET EC50 where system = A2A adenosine receptors (PC12 cells) (Rattus norvegicus, UniProt P30543) and item = Nc1nc(C#CCOc2ccccc2)nc2c1ncn2C1O[C@@H](CO)[C@H](O)[C@@H]1O (stereo partly shown) [CVT-2995]
Completion: 1.51

---

targetDesc: human A1 adenosine receptors (Homo sapiens, UniProt P30542)
Construct: expressed in transfected cells
Sequence (P30542 whole entry): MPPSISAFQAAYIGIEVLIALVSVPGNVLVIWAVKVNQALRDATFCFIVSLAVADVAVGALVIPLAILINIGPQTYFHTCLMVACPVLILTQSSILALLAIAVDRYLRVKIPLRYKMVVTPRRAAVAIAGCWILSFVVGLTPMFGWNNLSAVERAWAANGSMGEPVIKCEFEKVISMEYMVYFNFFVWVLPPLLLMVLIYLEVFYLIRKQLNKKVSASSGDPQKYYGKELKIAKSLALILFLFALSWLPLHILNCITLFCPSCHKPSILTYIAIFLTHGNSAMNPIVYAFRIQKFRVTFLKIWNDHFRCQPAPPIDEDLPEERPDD
methodDescription: Competitive radioligand binding, [3H]CPX, CHO-hA1AdoR membranes
testContext: [3H]CPX; read-out: Ki, CHO-hA1AdoR
Measured Ki by item
Write it as a number; the unit µM goes unstated.

1) Nc1nc(N/N=C/C2CCCCC2)nc2c1ncn2[C@@H]1O[C@H](CO)[C@@H](O)[C@H]1O [WRC0470, reference compound]; 7.28
2) CCCCCn1cc(-c2nc(N)c3ncn(C4O[C@@H](CO)[C@H](O)[C@@H]4O)c3n2)cn1 (some centres unmarked); 5.84
3) Nc1nc(-c2cnn(Cc3ccccc3)c2)nc2c1ncn2C1O[C@@H](CO)[C@H](O)[C@@H]1O (some centres unmarked); 6.35

# input for lookup
Prompt: Specify measured Ki for Nc1nc(C#CCOc2ccccc2)nc2c1ncn2C1O[C@@H](CO)[C@H](O)[C@@H]1O (some centres unmarked) .
Completion: 0.866

---

targetDesc: UniProt K9IW67
methodDescription: Competitive radioligand binding, [3H]ZM241385, pig striatum membranes
quantityName: pKi
Reminder that pKi means the negative base-10 logarithm of the concentration expressed in mol/L.

Prompt: Specify measured pKi for Nc1nc(N/N=C/C2CCCCC2)nc2c1ncn2[C@@H]1O[C@H](CO)[C@@H](O)[C@H]1O [WRC0470, reference compound] .
Completion: 7.68

---

System: rat isolated perfused heart
methodDescription: Coronary conductance / coronary perfusion pressure in isolated perfused rat hearts
testContext: Rattus norvegicus; read-out: EC50, Coronary Conductance (Rat Isolated Heart)
Measured EC50 by item
Write it as a number; the unit µM goes unstated.

1) CCCCCn1cc(-c2nc(N)c3ncn(C4O[C@@H](CO)[C@H](O)[C@@H]4O)c3n2)cn1 (stereo partly shown); 0.068

Prompt: Specify measured EC50 for Nc1nc(-c2cnn(Cc3ccccc3)c2)nc2c1ncn2C1O[C@@H](CO)[C@H](O)[C@@H]1O (stereo partly shown) .
Completion: 0.0665

Prompt: Specify measured EC50 for Nc1ncnc2c1ncn2[C@@H]1O[C@H](CO)[C@@H](O)[C@H]1O [Adenosine, adenosine, reference compound] .
Completion: 0.0592

Prompt: Specify measured EC50 for Nc1nc(C#CCOc2ccccc2)nc2c1ncn2C1O[C@@H](CO)[C@H](O)[C@@H]1O (stereo partly shown) .
Completion: 0.00068

---

targetDesc: A2A adenosine receptors (Rattus norvegicus, UniProt P30543)
methodDescription: Competitive radioligand binding, [3H]ZM241385, PC12 cell membranes
testContext: Ki, PC12 cells (A2A)
quantityName: Ki (nM)
Write it as a number; the unit nM goes unstated.

1) Nc1nc(-c2cnn(Cc3ccccc3)c2)nc2c1ncn2C1O[C@@H](CO)[C@H](O)[C@@H]1O (some centres unmarked) [CVT-3032]; 5520

# input for lookup
Prompt: Specify measured Ki for Nc1nc(N/N=C/C2CCCCC2)nc2c1ncn2[C@@H]1O[C@H](CO)[C@@H](O)[C@H]1O [WRC0470, reference compound] .
Completion: 18

---

targetDesc: A2A adenosine receptors (Rattus norvegicus, UniProt P30543)
methodDescription: Competitive radioligand binding, [3H]ZM241385, PC12 cell membranes
testContext: Ki, PC12 cells (A2A), [3H]ZM241385
quantityName: pKi
Reminder that pKi means the negative base-10 logarithm of the concentration expressed in mol/L.

Prompt: GET pKi where system = A2A adenosine receptors (Rattus norvegicus, UniProt P30543) and item = Nc1nc(C#CCOc2ccccc2)nc2c1ncn2C1O[C@@H](CO)[C@H](O)[C@@H]1O (stereo partly shown)
Completion: 7.28

---

Measured log10 of Ki by item
targetDesc: human A1 adenosine receptors (Homo sapiens)
Construct: expressed in transfected cells
methodDescription: Competitive radioligand binding, [3H]CPX, CHO-hA1AdoR membranes
testContext: [3H]CPX; read-out: pKi ± SEM, CHO-hA1AdoR (converted)
Each number you see is log10 of Ki, and the unit inside the log is µM.

1. CNC(=O)c1cnn(-c2nc(N)c3ncn(C4O[C@@H](CO)[C@H](O)[C@@H]4O)c3n2)c1 (some centres unmarked); 1.41
2. CCCCCn1cc(-c2nc(N)c3ncn(C4O[C@@H](CO)[C@H](O)[C@@H]4O)c3n2)cn1 (some centres unmarked); 0.76
3. Nc1nc(N/N=C/C2CCCCC2)nc2c1ncn2[C@@H]1O[C@H](CO)[C@@H](O)[C@H]1O [WRC0470, reference compound]; 0.84
4. Nc1nc(C#CCOc2ccccc2)nc2c1ncn2C1O[C@@H](CO)[C@H](O)[C@@H]1O (some centres unmarked); -0.07

Prompt: Specify measured log10 of Ki for Nc1nc(-c2cnn(Cc3ccccc3)c2)nc2c1ncn2C1O[C@@H](CO)[C@H](O)[C@@H]1O (some centres unmarked) .
Completion: 0.78

---

Tested on: rat isolated perfused heart
methodDescription: Reversal time of coronary vasodilation in rat isolated perfused hearts;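 further: each agonist bolused at its minimal concentration giving equal maximal coronary conductance rise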
testContext: bolus, rat isolated perfused heart
Mark True for reported t0.9, time to 90% reversal of the increase in coronary conductance of 20 min or greater; mark False for anything smaller.

Some solved cases for reference:
1) N#Cc1ccc(OCC#Cc2nc(N)c3ncn([C@@H]4O[C@H](CO)[C@@H](O)[C@H]4O)c3n2)cc1; True
2) Nc1nc(C#CCOc2ccccc2Cc2ccccc2)nc2c1ncn2[C@@H]1O[C@H](CO)[C@@H](O)[C@H]1O; True

Prompt: I'd appreciate it if you could say whether CCOC(=O)c1cnn(-c2nc(N)c3ncn([C@@H]4O[C@H](CO)[C@@H](O)[C@H]4O)c3n2)c1 has t0.9, time to 90% reversal of the increase in coronary conductance at least equal to 20 min.
Completion: False

---

targetDesc: human A2A adenosine receptors (Homo sapiens, UniProt P29274)
Sequence (P29274 whole entry): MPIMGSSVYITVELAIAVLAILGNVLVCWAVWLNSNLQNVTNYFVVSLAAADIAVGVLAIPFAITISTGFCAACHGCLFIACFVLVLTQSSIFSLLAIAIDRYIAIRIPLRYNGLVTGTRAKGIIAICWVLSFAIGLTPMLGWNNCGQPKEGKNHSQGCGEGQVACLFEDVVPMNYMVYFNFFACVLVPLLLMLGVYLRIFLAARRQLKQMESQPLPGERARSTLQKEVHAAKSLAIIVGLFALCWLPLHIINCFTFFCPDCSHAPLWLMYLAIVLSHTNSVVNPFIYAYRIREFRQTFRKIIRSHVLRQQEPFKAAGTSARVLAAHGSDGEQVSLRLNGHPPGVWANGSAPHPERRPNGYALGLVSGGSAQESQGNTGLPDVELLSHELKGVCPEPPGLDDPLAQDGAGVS
methodDescription: Competitive radioligand binding, [3H]ZM241385, HEK-hA2AAdoR membranes
testContext: binding affinity in HEK cells expressing human A2A receptors (Ki)
quantityName: pKi
Reminder that pKi means the negative base-10 logarithm of the concentration expressed in mol/L.

Prompt: Specify measured pKi for CCCCCn1cc(-c2nc(N)c3ncn(C4O[C@@H](CO)[C@H](O)[C@@H]4O)c3n2)cn1 (stereo partly shown) .
Completion: 5.54

---

System: rat isolated perfused heart
methodDescription: Reversal time of coronary vasodilation in rat isolated perfused hearts;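 further: each agonist bolused at its minimal concentration giving equal maximal coronary conductance rise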
testContext: bolus, rat isolated perfused heart
Measured t0.9, time to 90% reversal of the increase in coronary conductance by item
Write it as a number; the unit min goes unstated.

The examples below pair each entry with its known result.
1) Cc1ccc(-c2nc(N)c3ncn([C@@H]4O[C@H](CO)[C@@H](O)[C@H]4O)c3n2)s1; 10.1
2) Nc1ncnc2c1ncn2[C@@H]1O[C@H](CO)[C@@H](O)[C@H]1O [Adenosine, adenosine, reference compound]; 5.6
3) Cc1ccc(-c2cnn(-c3nc(N)c4ncn([C@@H]5O[C@H](CO)[C@@H](O)[C@H]5O)c4n3)c2)cc1; 18.9

# input for lookup
Prompt: GET t0.9, time to 90% reversal of the increase in coronary conductance where system = rat isolated perfused heart and item = CCCCCn1cc(-c2nc(N)c3ncn(C4O[C@@H](CO)[C@H](O)[C@@H]4O)c3n2)cn1 (stereo partly shown)
Completion: 8.4
